assay_procedure: Pharmacokinetic test on male SD rats
Assay type: in vivo
condition_summary: rat, po, gavage (p.o.), 10 mg/kg, plasma
measure_name: AUC(0-inf) (ng·h/mL)

Recorded results for 2 molecules are shown here.
[[record]]
molecule = "CCc1cc(Nc2ncc(Br)c(Nc3ccccc3C(=O)NC)n2)c(OC)cc1N1CCN(C(=O)CN2CCC(c3ccc4c(N5CCC(=O)NC5=O)nn(C)c4c3)C(F)(F)C2)CC1 (centres unmarked)"
result = 4560

[[record]]
molecule = "CCc1cc(Nc2ncc(Cl)c(Nc3ccccc3C(=O)NC)n2)c(OC)cc1N1CCN(C(=O)CN2CCC(c3ccc4c(N5CCC(=O)NC5=O)nn(C)c4c3)C(F)(F)C2)CC1 (centres unmarked)"
result = 6730


P: CCc1cc(Nc2ncc(Cl)c(Nc3ccccc3C(=O)NC)n2)c(OC)cc1N1CCN(CCN2CCC(c3ccc(NC4CCC(=O)NC4=O)cc3)CC2)CC1 (centres unmarked)
Q: CCc1cc(Nc2ncc(Cl)c(Nc3ccccc3C(=O)NC)n2)c(OC)cc1N1CCN(C(=O)CC2(O)CCN(c3ccc(NC4CCC(=O)NC4=O)cc3F)CC2)CC1 (centres unmarked)
R: CCc1cc(Nc2ncc(Cl)c(Nc3ccccc3C(=O)NC)n2)c(OC)cc1N1CCN(C(=O)CN2CCC(c3ccc(NC4CCC(=O)NC4=O)cc3)CC2)[C@H](C)C1 (some centres unmarked)
In this exercise, place the 3 molecules in ascending sequence of their recorded AUC(0-inf). # answer = labels listed in requested order
R, Q, P
(R: 7990 ng·h/mL, Q: 24400 ng·h/mL, P: 76300 ng·h/mL)

====

assay_procedure: Pharmacokinetic test on male SD rats
Type: in vivo
condition_summary: rat, po, gavage (p.o.), 10 mg/kg, plasma
measure_name: Cmax (ng/mL)

Recorded results for 5 compounds are shown here.
[[record]]
compound = "COc1cc(N2CCN(C(=O)CN3CCC(c4ccc(NC5CCC(=O)NC5=O)cc4)CC3)CC2)ccc1Nc1ncc(Cl)c(Nc2ccccc2C(C)=O)n1 (stereo not shown) [Control Compound 1, reference compound]"
measure_name = "Cmax"
result = 227

[[record]]
compound = "CCc1cc(Nc2ncc(Cl)c(Nc3ccccc3C(=O)NC)n2)c(OC)cc1N1CCN(C(=O)CC2(O)CCN(c3ccc(NC4CCC(=O)NC4=O)cc3F)CC2)CC1 (stereo not shown)"
measure_name = "Cmax"
result = 2290

[[record]]
compound = "CCc1cc(Nc2ncc(Br)c(Nc3ccccc3C(=O)NC)n2)c(OC)cc1N1CCN(C(=O)CN2CCC(c3ccc4c(N5CCC(=O)NC5=O)nn(C)c4c3)C(F)(F)C2)CC1 (stereo not shown)"
measure_name = "Cmax"
result = 721

[[record]]
compound = "CCc1cc(Nc2ncc(Cl)c(Nc3ccccc3C(=O)NC)n2)c(OC)cc1N1CCN(C(=O)CN2CCC(c3ccc(NC4CCC(=O)NC4=O)cc3)CC2)[C@@H](C)C1 (stereo partly shown)"
measure_name = "Cmax"
result = 714

[[record]]
compound = "CCc1cc(Nc2ncc(Cl)c(Nc3ccccc3C(=O)NC)n2)c(OC)cc1N1CCN(C(=O)CN2CCC(c3ccc(NC4CCC(=O)NC4=O)cc3)CC2)[C@H](C)C1 (stereo partly shown)"
measure_name = "Cmax"
result = 673


P: CCc1cc(Nc2ncc(Cl)c(Nc3ccccc3C(=O)NC)n2)c(OC)cc1N1CCN(CCN2CCC(c3ccc(NC4CCC(=O)NC4=O)cc3)CC2)CC1 (stereo not shown)
Q: CCc1cc(Nc2ncc(Cl)c(Nc3ccccc3C(=O)NC)n2)c(OC)cc1N1CCN(C(=O)CN2CCC(c3ccc(NC4CCC(=O)NC4=O)cc3F)CC2)CC1 (stereo not shown)
Dear colleague, could you let me know whether P or Q has the lower recorded Cmax? Thanks. Answer by stating the label of the chosen item.
Q
